SYSTEM: T1, human Sdc2 (human, UniProt P34741 19-144, limits assumed)
T1 construct: Antigen of the Octet tandem binning, loaded on biosensors at 100 nM; also called huSdc2; hSdc2
T1 sequence (P34741 19-144 limits assumed): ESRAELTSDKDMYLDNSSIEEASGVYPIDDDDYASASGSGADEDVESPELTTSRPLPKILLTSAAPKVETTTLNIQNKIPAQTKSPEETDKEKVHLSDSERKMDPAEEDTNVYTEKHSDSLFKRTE
ASSAY SUMMARY: Octet tandem binning; saturating Ab f8 19844-R4M-P2-C02
ENDPOINT: raw competing-Ab binding signal
Numbers only.

BINDER | ENDPOINT | MEASURED
R3-P3-E09 (antibody, human IgG1, kappa, V domains shown, human IgG1 kappa from the phage campaign) VH: EVQLVETGGGVVQPGRSLTLSCGASEFTFSNYAMHWVRQAPGKGLEWVAVISYDGTKKYYGDSVKGRFTISRENIKNTLYLQMNSLRSEDTAVYYCARDVGKGVTATGTFDIWGQGTMVTVSS VL: AIRMTQSPSSLSASVGDRVTITCRASQGIGSYLAWFQQKPGEAPKSLIIDATRLKSGVPSRFSGSGSGTEFALTISSLRPEDFATYYCQQYNVSPLTFGGGTKVEIKR | raw competing-Ab binding signal | 0.209
8-G17-A (antibody, V domains shown, PentaMice hybridoma clone, made recombinantly in CHO cells) VH: EVQLVESGGGLVKPGGSLKLSCEASGITFSNYVMSWVRQTPEKRLEWVATISDGGSYTYYPDNLKGRFTISRDNAKNNLYLQMSHLKSEDTAMYYCVRDRYDYDGRVYAMDYWGQGTSVTVSS VL: DVVMTQTPLSLPVSLGDQASISCRSSQSLVHSNGNTYLHWYLQKPGQSPKLLIYKVSNRFSGVPDRFSGSGSGTDFTLKITRVEAEDLGVYFCSQSTHVPWTFGGGTKLEIKR | raw competing-Ab binding signal | 0.777

Here is another binder to look at.
Tell me raw competing-Ab binding signal reported for R4M-P3-E06 (antibody, human IgG1, kappa, V domains shown, human IgG1 kappa from the phage campaign) VH: EVQLVESGGGVVQPGGSLRLSCAASGFTFSNYGMHWVRQAPGKGLEWVATISYDGTKKYYPDSVRGRFTISRDNSENMLYLQMDSLRLEDTAVIYCAKDLVSGSRYGFAFDSWGPGTLVTVSS VL: DIVMTQSPLSLPVTLGQPASISCRSSQSLVHSDGNTYLNWFQQRPGQSPRRLIYKVSNRDSGVPDRFSGTGSGTDFTLKISRVEADDVGVYYCMQGTHWPPIFGQGTRLEIKR
0.0709
